Values from PubChem BioAssay

target: Pantothenate synthetase (Mycobacterium tuberculosis (strain ATCC 25618 / H37Rv)) (UniProt P9WIL5); assay: Coupled enzyme confirmation of inhibitors against recombinant Mtb PanC (AID 375); details: coupled enzyme assay; at 10 µM, hits give high values;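 note: 0% = full reaction with vehicle and 100% = no enzyme background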
Sequence (P9WIL5 whole entry, looked up): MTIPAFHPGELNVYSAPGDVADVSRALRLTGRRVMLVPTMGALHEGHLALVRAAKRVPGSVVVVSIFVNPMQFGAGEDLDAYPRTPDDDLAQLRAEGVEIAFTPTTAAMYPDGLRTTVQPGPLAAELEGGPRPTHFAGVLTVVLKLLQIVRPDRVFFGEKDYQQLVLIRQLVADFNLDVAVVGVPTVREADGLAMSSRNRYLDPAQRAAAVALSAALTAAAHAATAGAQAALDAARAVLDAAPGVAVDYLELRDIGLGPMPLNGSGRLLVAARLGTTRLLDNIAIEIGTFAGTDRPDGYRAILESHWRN
Calls of active or inactive are those of the source. The rule behind the calls is not given here.
Quantity: inhibition

Field: example entries. Status: answers known.
{"Molecule": "Cc1cc2nc(C3CCN(CC4COc5ccccc5O4)CC3)[nH]c2cc1C (stereo unspecified)", "inhibition": "6% (inactive)"}
{"Molecule": "COc1ccc(NC(=O)Nc2ccc(C)cc2OC(F)F)cc1OC", "inhibition": "3% (inactive)"}
{"Molecule": "COc1ccc(CCNS(=O)(=O)c2ccc3oc(C(=O)O)c(C)c3c2)cc1OC", "inhibition": "0% (inactive)"}
{"Molecule": "CCN(CCCCOC(=O)c1ccc(OC)c(OC)c1)C(C)Cc1ccc(OC)cc1 (stereo unspecified)", "inhibition": "9% (inactive)"}
{"Molecule": "CN(C)CCNc1oc(-c2ccccc2F)nc1C#N", "inhibition": "1% (inactive)"}

inhibition for "COCCn1c(-c2ccco2)nc2nc3ccccc3nc21" ?
5% (inactive)
